system: OVCAR-3 ovarian; assay: NCI-60 one-dose screen, 48 h (100 = growth as untreated, 0 = no growth, -100 = all killed); details: 10 µM unless noted
Compounds without any hit were thinned out: in the full panel of roughly 83,000, 20% have a hit.
EXPERIMENTAL_READOUT: growth (%)
Give just the number in %; leave the unit off.

Below, each entry is followed by its recorded growth result.
# MOLECULE, EXPERIMENTAL_READOUT, OBSERVED_MEASUREMENT
rows = [
    ("COc1cccc(N=CNc2cccc(OC)c2)c1", "growth", 102),
    ("CCOC(=O)c1cc(C)[nH]c(=O)c1C#N", "growth", 105),
    ("CCNC(=O)Oc1ccc[nH]c1=O", "growth", 112),
]

Lookup: Need growth, item OCC1OC(n2ccc3c2ncn2ncnc32)C(O)C1O (configuration not stated)
Found: 28.9

Lookup: Need growth, item Clc1ncnc2nc[nH]c12
Found: 98.1

Lookup: Need growth, item CC(=O)NC(CCC(=O)c1ccccc1)C(=O)O (configuration not stated)
Found: 107

Lookup: Need growth, item COC1(OC)C2(Cl)C(Cl)=C(Cl)C1(Cl)C1COCC12 (configuration not stated)
Found: 110

Lookup: Need growth, item NC(=S)N/N=C/c1ccc(OC(=O)COc2ccccc2)cn1
Found: 60.2

Lookup: Need growth, item COC1=C(OC)C(=O)C(SC/C=C(\C)CCCC(C)CCCC(C)CCCC(C)C)=CC1=O (configuration not stated)
Found: 13.6

Lookup: Need growth, item Clc1ccc(/C=C/c2ccccn2)cc1
Found: 98.4

Lookup: Need growth, item C=CC1=NC(C)(C)CC(C)O1 (configuration not stated)
Found: 113

Lookup: Need growth, item CC(=O)O[C@H]1CC[C@]2(C)C3=C(C(=O)C[C@H]2C1(C)C)[C@]1(C)CC[C@H]([C@H](C)CCC(=O)O)[C@@]1(C)CC3=O
Found: 102

====

Tested on: SK-MEL-2 melanoma
Test: NCI-60 one-dose screen, 48 h (100 = growth as untreated, 0 = no growth, -100 = all killed)
Conditions: 10 µM unless noted
Protocol: Growth inhibition of the SK-MEL-2 human tumor cell line is measured as a screen for anti-cancer activity. Cells are grown in 96 well plates and exposed to the test compound for 48 hours. Compounds are tested at a single concentration, which is 10^-5 M for most compounds. The reported endpoint is percent growth (GI% or GIPRCNT), where numbers from 0 - 100% represent growth inhibition, and numbers from -100% - 0 represent cell death. For example, a value of 40 represents 60% growth inhibition. […]
The panel holds about 83,000 compounds, 20% with a hit somewhere; the sample as a whole holds those more often.
growth values for the compounds below.
Give just the number in %; leave the unit off.

Below, each entry is followed by its recorded growth result.
# RECORD_SMILES, EXPERIMENTAL_TARGET, growth, %
measured = [
    ("CCN(Cc1ccc(Cl)c(Cl)c1)c1ccc2nc(N)nc(N)c2c1C", "SK-MEL-2 melanoma", -78),
    ("Cc1c(Cl)cccc1NC(=S)NC(=O)c1ccccc1", "SK-MEL-2 melanoma", 96),
    ("NC(CO)(CO)c1ccccc1", "SK-MEL-2 melanoma", 107),
    ("COc1ccc(NNS(=O)(=O)O)cc1", "SK-MEL-2 melanoma", 103),
    ("O=C(NC1CCCCC1)c1ccc(Cl)cc1", "SK-MEL-2 melanoma", 115),
    ("CCOC(=O)c1cc(C)[nH]c(=O)c1C#N", "SK-MEL-2 melanoma", 104),
]

Lookup: Need growth, item Cc1ccc(N2C(=O)c3cccc4c(N)c(S(=O)(=O)O)cc(c34)C2=O)cc1
Found: 82.3

====

system: KM12 colon; test: NCI-60 one-dose screen, 48 h (100 = growth as untreated, 0 = no growth, -100 = all killed); details: 10 µM unless noted
Compounds without any hit were thinned out: in the full panel of roughly 83,000, 20% have a hit.
EXPERIMENTAL_READOUT: growth (%)
Give just the number in %; leave the unit off.

Below, each entry is followed by its recorded growth result.
# RECORD_SMILES, EXPERIMENTAL_TARGET, SCALE_UNIT, OBSERVED_MEASUREMENT
data = [
    ("CCOS(=O)(=O)c1ccc([N+](=O)[O-])cc1", "KM12 colon", "%", 108),
    ("C(=C\\c1ccncc1)/c1ccncc1", "KM12 colon", "%", 112),
    ("CCOC(=O)/C(O)=C(\\C=N\\C(=S)Nc1ccc(Cl)c(Cl)c1)C(=O)OCC", "KM12 colon", "%", 100),
]

Lookup: Need growth, item Ic1cccs1
Found: 103

Lookup: Need growth, item N#Cc1ccc(OC(=O)Nc2c(Cl)cc(Cl)cc2Cl)cc1
Found: 107

Lookup: Need growth, item C/C(O)=C(/C=N\C(=S)Nc1ccc(S(=O)(=O)Nc2nccs2)cc1)C(=O)Nc1ccccc1C
Found: 96.8

Lookup: Need growth, item Nc1cc2ccccc2c(O)c1O
Found: 62.3

====

System: SK-MEL-5 melanoma
Experiment: NCI-60 one-dose screen, 48 h
Details: 10 µM unless noted
Experimental: Growth inhibition of the SK-MEL-5 human tumor cell line is measured as a screen for anti-cancer activity. Cells are grown in 96 well plates and exposed to the test compound for 48 hours. Compounds are tested at a single concentration, which is 10^-5 M for most compounds. The reported endpoint is percent growth (GI% or GIPRCNT), where numbers from 0 - 100% represent growth inhibition, and numbers from -100% - 0 represent cell death. For example, a value of 40 represents 60% growth inhibition. […]
This is part of a sample that, as a whole, favours compounds with a hit. Of some 83,000 tested, about 20% had one in any assay. Calls of active or inactive are those of the source. Rule for the calls: active = growth percent below 10; inactive = the rest.
Give one outcome, nothing more. List: true for active, false for inactive

Lookup: Entry Cc1cc(=O)n(Nc2ccccc2)c(O)c1C#N : call = ?
Found: false

Lookup: Entry C=CCNC(=S)N/C=C(/C(=O)c1ccccc1)c1ccccc1 : call = ?
Found: false

Lookup: Entry COc1ccc(C(=O)/C(=N/Nc2ccccc2)c2ccc(OC)cc2)cc1 : call = ?
Found: false

Lookup: Entry C/C(=N\N=C(/C)c1cccc([N+](=O)[O-])c1)c1cccc([N+](=O)[O-])c1 : call = ?
Found: false

Lookup: Entry O=C(O)C1CSC(c2ccccc2)N1 (stereo unspecified) : call = ?
Found: false

====

System: IGROV1 ovarian
Assay: NCI-60 one-dose screen, 48 h (100 = growth as untreated, 0 = no growth, -100 = all killed)
Conditions: 10 µM unless noted
Experimental: Growth inhibition of the IGROV1 human tumor cell line is measured as a screen for anti-cancer activity. Cells are grown in 96 well plates and exposed to the test compound for 48 hours. Compounds are tested at a single concentration, which is 10^-5 M for most compounds. The reported endpoint is percent growth (GI% or GIPRCNT), where numbers from 0 - 100% represent growth inhibition, and numbers from -100% - 0 represent cell death. For example, a value of 40 represents 60% growth inhibition. […]
About 83,000 compounds went through this panel and 20% of them were active in at least one assay; those are over-represented in the sample as a whole. The source made the active and inactive calls. The calls were made as follows: active = growth percent below 10; inactive = the rest.
EXPERIMENTAL_READOUT: growth

# MOLECULE, EXPERIMENTAL_TARGET, OBSERVED_MEASUREMENT
measured = [
    ("CCOC(=O)C1(N)CCCCC1", "IGROV1 ovarian", "85.4% (inactive)"),
    ("NC(=S)N/N=C/c1ccc(OC(=O)COc2ccccc2)cn1", "IGROV1 ovarian", "54.6% (inactive)"),
    ("CC1CC(C)S(=O)(=O)C1 (stereo not drawn)", "IGROV1 ovarian", "118% (inactive)"),
    ("CN(C)c1ccc2nc3ccc(=[N+](C)C)cc-3oc2c1", "IGROV1 ovarian", "5.34% (active)"),
    ("CCN(CC)CCN1CNC(=S)NC1", "IGROV1 ovarian", "113% (inactive)"),
    ("C/C(=N\\Nc1ccc([N+](=O)[O-])cc1[N+](=O)[O-])c1ccc(Br)cc1", "IGROV1 ovarian", "110% (inactive)"),
]

Lookup: Need growth, item S=C(Sc1ccc(Cl)cc1)Sc1ccc(Cl)cc1
Found: -49.8% (active)

Lookup: Need growth, item CCOC(=O)c1ccc(C(C)(C)C)cc1
Found: 108% (inactive)

Lookup: Need growth, item O=S(=O)(O)c1cccnc1
Found: 132% (inactive)

====

test system: SW-620 colon; assay: NCI-60 one-dose screen, 48 h; conditions: 10 µM unless noted
The panel holds about 83,000 compounds, 20% with a hit somewhere; the sample as a whole holds those more often. Active and inactive are the calls of the source. The calls were made as follows: active = growth percent below 10; inactive = the rest.
Give one outcome, nothing more. List: Y = active, N = inactive

# COMPOUND, ASSIGNED_CATEGORY
rows = [
    ("COc1cc(C(=O)N2CCN(c3ccccc3)CC2)c2ccccc2n1", "N"),
]

Lookup: Entry N#Cc1ccc(OC(=O)Nc2cc(Cl)cc(Cl)c2)cc1 : call = ?
Found: Y

Lookup: Entry CCc1ccccc1C(=O)N(CC)CC : call = ?
Found: N

Lookup: Entry Cc1ccc(C(C)C)c(OCC(=O)O)c1 : call = ?
Found: N

Lookup: Entry CCC1CCC(C)NC1 (centres undefined) : call = ?
Found: N

Lookup: Entry CC(=O)Nc1ccc(C(=O)c2ccc(S(=O)(=O)Nc3ccccc3)cc2)cc1 : call = ?
Found: N

Lookup: Entry CC(C)C1CCC(C)C(O)C1 (centres undefined) : call = ?
Found: N

Lookup: Entry C/C(=N\N=C(/C)c1cccc([N+](=O)[O-])c1)c1cccc([N+](=O)[O-])c1 : call = ?
Found: N

Lookup: Entry COC1(OC)C2(Cl)C(Cl)=C(Cl)C1(Cl)C1COCC12 (centres undefined) : call = ?
Found: N

Lookup: Entry O=C(O)CSCC(=O)Nc1cc(C(F)(F)F)ccc1Cl : call = ?
Found: N

Lookup: Entry O=[N+]([O-])c1ccc2[nH]c(=S)n(/C=C(/c3ccc(Cl)cc3Cl)S(=O)(=O)Cc3ccc(Cl)cc3Cl)c2c1 : call = ?
Found: N

Lookup: Entry O=C(CCCl)OCCOc1ccccc1 : call = ?
Found: N

Lookup: Entry O=C1Nc2ccccc2/C1=C\c1ccccc1O : call = ?
Found: N

Lookup: Entry NNC(=O)N/N=C1\C(=O)N(c2nccs2)C(=O)C(=O)C1c1nc2ccccc2s1 (centres undefined) : call = ?
Found: N

Lookup: Entry C[n+]1cc2cc3c(cc2c2ccccc21)OCO3 : call = ?
Found: N

Lookup: Entry C=CC(C)(C)n1cc(C2=C(O)C(=O)C(c3cn(C(C)(C)C=C)c4ccccc34)=C(O)C2=O)c2ccccc21 : call = ?
Found: N

Lookup: Entry C=CC1=NC(C)(C)CC(C)O1 (centres undefined) : call = ?
Found: N

Lookup: Entry CCCNS(=O)(=O)c1ccc(Cl)cc1 : call = ?
Found: N
